# EXPERIMENT: Excretion in bile duct-cannulated rats
# Format: in vivo, Sprague-Dawley rats
# REPORTED_CONDITIONS: rat, iv; bile duct-cannulated male Sprague-Dawley rats, single 5 mg/kg i.v. bolus, over 5 days, intact drug, n = 3; read-out: mean cumulative amount excreted into bile, % of total dose
Starred links: 1 amine or outer side, 2 acyl side, 3 side chain; linkers in the order of their positions; H or OH if unused. Positions of bridges follow the written chain, without caps; N, C: chain ends. Non-standard residues stand in square brackets, D forms with d. Residues, ends and D or L forms follow the SMILES beside them. *: point of attachment. Orn(4R-OH,5R-OCH2CH2NMe3+) = C[N+](C)(C)CCO[C@@H](N[*:3])[C@H](O)C[C@H](N[*:1])C(=O)[*:2]; pTerphenylCO(4''-OnC5H11) = CCCCCOc1ccc(-c2ccc(-c3ccc(C(=O)*)cc3)cc2)cc1; hTyr(3S-OH,4S-OH) = N[C@H](C(=O)O)[C@H](O)[C@@H](O)c1ccc(O)cc1; Pro(3S-OH,4S-Me) = C[C@H]1CN[C@H](C(=O)O)[C@H]1O; Hyp = O=C(O)[C@@H]1C[C@@H](O)CN1

[
  {
    "MOLECULE": "CCCCCOc1ccc(-c2ccc(-c3ccc(C(=O)N[C@H]4C[C@@H](O)[C@@H](OCC[N+](C)(C)C)NC(=O)[C@@H]5[C@@H](O)[C@@H](C)CN5C(=O)[C@H]([C@@H](C)O)NC(=O)[C@H]([C@H](O)[C@@H](O)c5ccc(O)cc5)NC(=O)[C@@H]5C[C@@H](O)CN5C(=O)[C@H]([C@@H](C)O)NC4=O)cc3)cc2)cc1 [CD101] ({pTerphenylCO(4''-OnC5H11)}-[Orn(4R-OH,5R-OCH2CH2NMe3+)]T[Hyp][hTyr(3S-OH,4S-OH)]T[Pro(3S-OH,4S-Me)]; lactam 1-C)",
    "dose excreted at 120 h [%]": 22.6
  }
]

----------
# EXPERIMENT: Chimpanzee pharmacokinetics, i.v. infusion
# Format: in vivo, chimpanzees
# REPORTED_CONDITIONS: in vivo, iv; female chimpanzees, single 1 mg/kg i.v. infusion (1 h), plasma, LC-MS/MS, noncompartmental, n = 2
Starred links: 1 amine or outer side, 2 acyl side, 3 side chain; linkers in the order of their positions; H or OH if unused. Positions of bridges follow the written chain, without caps; N, C: chain ends. Non-standard residues stand in square brackets, D forms with d. Residues, ends and D or L forms follow the SMILES beside them. *: point of attachment. Orn(4R-OH,5R-OCH2CH2NMe3+) = C[N+](C)(C)CCO[C@@H](N[*:3])[C@H](O)C[C@H](N[*:1])C(=O)[*:2]; pTerphenylCO(4''-OnC5H11) = CCCCCOc1ccc(-c2ccc(-c3ccc(C(=O)*)cc3)cc2)cc1; Orn(4R-OH,5R-OH) = O=C([C@H](C[C@@H](O)[C@@H](O)N[*:3])N[*:1])[*:2]; hTyr(3S-OH,4S-OH) = N[C@H](C(=O)O)[C@H](O)[C@@H](O)c1ccc(O)cc1; Pro(3S-OH,4S-Me) = C[C@H]1CN[C@H](C(=O)O)[C@H]1O; Hyp = O=C(O)[C@@H]1C[C@@H](O)CN1
Below, each of the compounds is paired with its reported half-life value.

[
  {
    "COMPOUND": "CCCCCOc1ccc(-c2ccc(-c3ccc(C(=O)N[C@H]4C[C@@H](O)[C@@H](O)NC(=O)[C@@H]5[C@@H](O)[C@@H](C)CN5C(=O)[C@H]([C@@H](C)O)NC(=O)[C@H]([C@H](O)[C@@H](O)c5ccc(O)cc5)NC(=O)[C@@H]5C[C@@H](O)CN5C(=O)[C@H]([C@@H](C)O)NC4=O)cc3)cc2)cc1 [anidulafungin] ({pTerphenylCO(4''-OnC5H11)}-[Orn(4R-OH,5R-OH)]T[Hyp][hTyr(3S-OH,4S-OH)]T[Pro(3S-OH,4S-Me)]; lactam 1-C)",
    "half-life / days": 1.25
  },
  {
    "COMPOUND": "CCCCCOc1ccc(-c2ccc(-c3ccc(C(=O)N[C@H]4C[C@@H](O)[C@@H](OCC[N+](C)(C)C)NC(=O)[C@@H]5[C@@H](O)[C@@H](C)CN5C(=O)[C@H]([C@@H](C)O)NC(=O)[C@H]([C@H](O)[C@@H](O)c5ccc(O)cc5)NC(=O)[C@@H]5C[C@@H](O)CN5C(=O)[C@H]([C@@H](C)O)NC4=O)cc3)cc2)cc1 [CD101] ({pTerphenylCO(4''-OnC5H11)}-[Orn(4R-OH,5R-OCH2CH2NMe3+)]T[Hyp][hTyr(3S-OH,4S-OH)]T[Pro(3S-OH,4S-Me)]; lactam 1-C)",
    "half-life / days": 3.36
  }
]

----------
# EXPERIMENT: Dog pharmacokinetics, i.v. bolus
# REPORTED_CONDITIONS: in vivo, iv, male beagle dogs, single 1.4 mg/kg slow i.v. bolus, plasma, LC-MS/MS, noncompartmental, n = 4
Starred links: 1 amine or outer side, 2 acyl side, 3 side chain; linkers in the order of their positions; H or OH if unused. Positions of bridges follow the written chain, without caps; N, C: chain ends. Non-standard residues stand in square brackets, D forms with d. Residues, ends and D or L forms follow the SMILES beside them. *: point of attachment. Orn(4R-OH,5R-OCH2CH2NMe3+) = C[N+](C)(C)CCO[C@@H](N[*:3])[C@H](O)C[C@H](N[*:1])C(=O)[*:2]; pTerphenylCO(4''-OnC5H11) = CCCCCOc1ccc(-c2ccc(-c3ccc(C(=O)*)cc3)cc2)cc1; hTyr(3S-OH,4S-OH) = N[C@H](C(=O)O)[C@H](O)[C@@H](O)c1ccc(O)cc1; Pro(3S-OH,4S-Me) = C[C@H]1CN[C@H](C(=O)O)[C@H]1O; Hyp = O=C(O)[C@@H]1C[C@@H](O)CN1
PROPERTY_NAME: AUC(0-t) (ng·h/mL)

[
  {
    "COMPOUND": "CCCCCOc1ccc(-c2ccc(-c3ccc(C(=O)N[C@H]4C[C@@H](O)[C@@H](OCC[N+](C)(C)C)NC(=O)[C@@H]5[C@@H](O)[C@@H](C)CN5C(=O)[C@H]([C@@H](C)O)NC(=O)[C@H]([C@H](O)[C@@H](O)c5ccc(O)cc5)NC(=O)[C@@H]5C[C@@H](O)CN5C(=O)[C@H]([C@@H](C)O)NC4=O)cc3)cc2)cc1 [CD101] ({pTerphenylCO(4''-OnC5H11)}-[Orn(4R-OH,5R-OCH2CH2NMe3+)]T[Hyp][hTyr(3S-OH,4S-OH)]T[Pro(3S-OH,4S-Me)]; lactam 1-C)",
    "TEST_VALUE": 48700
  }
]

----------
# EXPERIMENT: Excretion in bile duct-cannulated rats
# Assay type: in vivo, Sprague-Dawley rats
# REPORTED_CONDITIONS: male, Sprague-Dawley, rat, bile plus faeces, iv; bile duct-cannulated rats, 5 mg/kg i.v., bile plus feces
Starred links: 1 amine or outer side, 2 acyl side, 3 side chain; linkers in the order of their positions; H or OH if unused. Positions of bridges follow the written chain, without caps; N, C: chain ends. Non-standard residues stand in square brackets, D forms with d. Residues, ends and D or L forms follow the SMILES beside them. *: point of attachment. Orn(4R-OH,5R-OCH2CH2NMe3+) = C[N+](C)(C)CCO[C@@H](N[*:3])[C@H](O)C[C@H](N[*:1])C(=O)[*:2]; pTerphenylCO(4''-OnC5H11) = CCCCCOc1ccc(-c2ccc(-c3ccc(C(=O)*)cc3)cc2)cc1; hTyr(3S-OH,4S-OH) = N[C@H](C(=O)O)[C@H](O)[C@@H](O)c1ccc(O)cc1; Pro(3S-OH,4S-Me) = C[C@H]1CN[C@H](C(=O)O)[C@H]1O; Hyp = O=C(O)[C@@H]1C[C@@H](O)CN1

[
  {
    "COMPOUND": "CCCCCOc1ccc(-c2ccc(-c3ccc(C(=O)N[C@H]4C[C@@H](O)[C@@H](OCC[N+](C)(C)C)NC(=O)[C@@H]5[C@@H](O)[C@@H](C)CN5C(=O)[C@H]([C@@H](C)O)NC(=O)[C@H]([C@H](O)[C@@H](O)c5ccc(O)cc5)NC(=O)[C@@H]5C[C@@H](O)CN5C(=O)[C@H]([C@@H](C)O)NC4=O)cc3)cc2)cc1 [CD101] ({pTerphenylCO(4''-OnC5H11)}-[Orn(4R-OH,5R-OCH2CH2NMe3+)]T[Hyp][hTyr(3S-OH,4S-OH)]T[Pro(3S-OH,4S-Me)]; lactam 1-C)",
    "dose excreted": "~50%"
  }
]
